Values were extracted from the Human Domainome abundance scans (Beltran et al. 2025).

B1: Membrane-associated guanylate kinase, WW and PDZ domain-containing protein 2, residues 601 to 682; numbered along this chain, Q86UL8 (parent)
chain: AELMTLTIVKGAQGFGFTIADSPTGQRVKQILDIQGCPGLCEGDLIVEINQQNVQNLSHTEVVDILKDCPIGSETSLIIHRG

- Variants of: B1
- Experiment description: abundance fitness (aPCA) (normalised: wild type 0, dead -1); higher = more abundant; growth selection in yeast, the domain comes from the species named
- Experimental parameters: Homo sapiens
If the reported abundance fitness equals or exceeds -0.1, assign satisfied. If not, assign not satisfied.

Worked cases, answers included:
>>> class_label("S22K")
"satisfied"
>>> class_label("R27P")
"not satisfied"
>>> class_label("G82H")
"not satisfied"
>>> class_label("N56V")
"not satisfied"
>>> class_label("K29V")
"not satisfied"

Answer whether abundance fitness of "C37E" is greater than or equal to -0.1.
satisfied

// inclusive: abundance fitness at least -0.1? input: "T18E"
satisfied

Test whether the variant "C69L" records abundance fitness of -0.1 or higher.
satisfied

Item "S76T" with abundance fitness of -0.1 or above?
satisfied

Please check the record "L77S" and state if its abundance fitness is at or above -0.1.
not satisfied

Item "V54A" with abundance fitness of -0.1 or above?
satisfied
